Test name: Inhibition of HCV NS3 helicase in presence of 1.5 mM ATP
Parameters: species or system Hepacivirus hominis
Attribute measured: IC50 (µM)
Numeric answer only, unit µM assumed.

Entry "COc1cccc2c(=O)c3cc(F)cc(C(=O)Nc4cccnc4)c3[nH]c12" , IC50 reported as 8.6

Kindly note the recorded IC50 for "COc1cccc2c(=O)c3cc(Cl)cc(C(=O)Nc4cc(Cl)ccn4)c3[nH]c12" , which is 1.5

What the record says about "COc1cccc2c(=O)c3cc(F)cc(C(=O)Nc4ccccn4)c3[nH]c12" : IC50 is 4.7

====

Test name: Cytotoxicity against human HuH7 cells after3 days by XTT assay
Please provide measured CC50 at 72 h for the entries that follow.

Briefly, CC50 at 72 h measured for "COc1cccc2c(=O)c3cc(F)cc(C(=O)Nc4cccnc4)c3[nH]c12" : > 1000 µM

Data point: "COc1cccc2c(=O)c3cccc(C(=O)Nc4cccnc4)c3[nH]c12" ; CC50 at 72 h = > 100 µM

CC50 at 72 h recorded for this molecule, "COc1cccc2c(=O)c3cc(Cl)cc(C(=O)Nc4ccccn4)c3[nH]c12" , is 15.8 µM

Query "COc1cc(NC(=O)c2cccc3c(=O)c4cccc(OC)c4[nH]c23)cc(OC)c1OC" yields CC50 at 72 h of > 500 µM

Form field CC50 at 72 h, entry "COc1cccc2c(=O)c3cc(F)cc(C(=O)Nc4ccccn4)c3[nH]c12" : > 100 µM

response.value for "COc1cccc2c(=O)c3cc(F)cc(C(=O)Nc4cc(Cl)ccn4)c3[nH]c12" (field: CC50 at 72 h) = > 100 µM

// CC50 at 72 h lookup, molecule = "COc1cccc2c(=O)c3cccc(C(=O)Nc4cc(Cl)ccn4)c3[nH]c12" , result: 171 µM

Looking up "COc1cccc2c(=O)c3cc(Cl)cc(C(=O)Nc4cc(Cl)ccn4)c3[nH]c12" , I see its CC50 at 72 h listed as > 100 µM

Please fill in: CC50 at 72 h reported for "COc1cccc2c(=O)c3cc(Cl)cc(C(=O)Nc4cccnc4)c3[nH]c12" = 19.3 µM

CC50 at 72 h in this record for "O=C(Nc1ccncc1)c1cccc2c(=O)c3cccc(OCc4ccccc4)c3[nH]c12" : > 100 µM
